Tested on: A549
test_summary: Antiproliferative activity against human A549 cells assessed as inhibition of cell proliferation incubated for 72 hrs by CellTiter-Glo luminescent assay
Format: functional, cell-based
stated_conditions: A549, 72 h
measured_parameter: log10 of IC50 (log10 of the value in nM)
Log10 applied to IC50; unit prior to transform: nM.

// C#CCOc1cc(/C=C/c2cc(O)c(CC=C(C)C)c(O)c2)cc2c1O[C@]1(C)CC[C@@H](O)C(C)(C)[C@H]1C2 : log10 of IC50 value = 3.59

// COc1cc(/C=C/c2cc(O)c3c(c2)OC(C)(C)CC3)cc2c1O[C@]1(C)C[C@@H](O)[C@@H](O)C(C)(C)[C@H]1C2 : log10 of IC50 value = 3.04

// COc1cc(/C=C/c2cc(O)c(CC=C(C)C)c(O)c2)cc2c1O[C@]1(C)C[C@@H](O)[C@@H](O)C(C)(C)[C@H]1C2 : log10 of IC50 value = 2.60

// C=CCOc1cc(/C=C/c2cc(O)c(CC=C(C)C)c(O)c2)cc2c1O[C@]1(C)CC[C@@H](O)C(C)(C)[C@H]1C2 : log10 of IC50 value = 3.70

// CC(C)=CCc1c(O)cc(/C=C/c2cc(O)c3c(c2)C[C@@H]2C(C)(C)[C@H](O)CC[C@@]2(C)O3)cc1O : log10 of IC50 value = 2.56

// CC1(C)CCc2c(O)cc(CCc3cc(O)c4c(c3)C[C@@H]3C(C)(C)[C@H](O)CC[C@@]3(C)O4)cc2O1 : log10 of IC50 value = 3.59

// COc1cc(/C=C/c2cc(O)c3c(c2)OC(C)(C)CC3)cc2c1O[C@]1(C)CC[C@@H](OC=O)C(C)(C)[C@H]1C2 : log10 of IC50 value = 3.38

// COc1cc(/C=C/c2cc(O)c(CC=C(C)C)c(O)c2)cc2c1O[C@]1(C)CC[C@@H](O)C(C)(C)[C@H]1C2 : log10 of IC50 value = 2.78

// C=CCc1c(/C=C/c2cc(O)c(CC=C(C)C)c(O)c2)cc2c(c1O)O[C@]1(C)CC[C@@H](O)C(C)(C)[C@H]1C2 : log10 of IC50 value = 3.46

// COc1cc(/C=C/c2cc(O)c3c(c2)OC(C)(C)CC3)cc2c1O[C@]1(C)CC[C@@H](O)C(C)(C)[C@H]1C2 : log10 of IC50 value = 3.40

// CC(C)=CCc1c(O)cc(/C=C/c2cc(O)c3c(c2)C[C@@H]2C(C)(C)[C@H](O)[C@H](O)C[C@@]2(C)O3)cc1O : log10 of IC50 value = 2.98

###

Please go through the items and note down their Ki.
experimental_target: Oxysterol-binding protein 1 (Homo sapiens, UniProt P22059)
Sequence (P22059 whole entry): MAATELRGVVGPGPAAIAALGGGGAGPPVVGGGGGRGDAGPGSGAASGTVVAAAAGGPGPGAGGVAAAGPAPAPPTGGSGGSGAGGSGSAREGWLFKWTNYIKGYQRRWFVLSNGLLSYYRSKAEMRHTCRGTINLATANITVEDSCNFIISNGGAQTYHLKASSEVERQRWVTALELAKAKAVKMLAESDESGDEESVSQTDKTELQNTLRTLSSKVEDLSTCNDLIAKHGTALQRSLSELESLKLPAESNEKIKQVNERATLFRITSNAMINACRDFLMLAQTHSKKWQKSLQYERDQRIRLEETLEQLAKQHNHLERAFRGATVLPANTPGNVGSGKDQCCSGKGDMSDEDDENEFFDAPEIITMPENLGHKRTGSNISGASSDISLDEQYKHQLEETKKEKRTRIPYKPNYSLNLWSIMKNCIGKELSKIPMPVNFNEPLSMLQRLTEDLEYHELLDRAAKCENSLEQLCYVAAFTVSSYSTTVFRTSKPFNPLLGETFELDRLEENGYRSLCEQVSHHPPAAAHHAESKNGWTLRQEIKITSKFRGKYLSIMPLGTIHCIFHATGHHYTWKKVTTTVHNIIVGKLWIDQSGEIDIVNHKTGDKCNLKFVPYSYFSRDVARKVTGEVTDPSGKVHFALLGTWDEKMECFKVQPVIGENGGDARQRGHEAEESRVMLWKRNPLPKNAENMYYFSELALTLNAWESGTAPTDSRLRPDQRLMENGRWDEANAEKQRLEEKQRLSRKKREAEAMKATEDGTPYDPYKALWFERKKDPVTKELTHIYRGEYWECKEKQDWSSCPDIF

// CC1(C)CCc2c(O)cc(CCc3cc(O)c4c(c3)C[C@@H]3C(C)(C)[C@H](O)CC[C@@]3(C)O4)cc2O1 : Ki value = < 1 nM

// CC(C)=CCc1c(O)cc(/C=C/c2cc(O)c3c(c2)C[C@@H]2C(C)(C)[C@H](O)[C@H](O)C[C@@]2(C)O3)cc1O : Ki value = < 1 nM

// COc1cc(/C=C/c2cc(O)c(CC=C(C)C)c(O)c2)cc2c1O[C@]1(C)C[C@@H](O)[C@@H](O)C(C)(C)[C@H]1C2 : Ki value = < 1 nM

Data origin, for the record: ChEMBL document CHEMBL5370602
